tested on: 5-lipoxygenase; test: Inhibition of the synthesis of LTB4 in total blood of rats ex vivo (5-lipoxygenase-inhibiting activity); set-up: species or system rat; conditions: 60 μmol/kg p.o., 1 h; A23187 5 × 10^-5 M, n = 8
Counter-ions that a name gives are not always drawn.
Assign class by % Inhibition of the synthesis of LTB4 in total blood of rats ex vivo: not lower than 50% means True; lower than 50% means False.

{"compound": "O=C1NCC2(CCN(CC(c3ccccc3)c3ccc(OCc4ccc5ccccc5n4)cc3)CC2)O1 (racemic)", "assigned.category": "True"}
{"compound": "O=C1NCC2(CCN(CC(Cc3ccccc3)c3ccc(OCc4ccc5ccccc5n4)cc3)CC2)O1 (racemic)", "assigned.category": "True"}
{"compound": "O=C1NCC2(CCN(CC(CCc3ccccc3)c3ccc(OCc4ccc5ccccc5n4)cc3)CC2)O1 (racemic)", "assigned.category": "False"}
{"compound": "O=C1NCC2(CCN(CC(Cc3ccc(Cl)cc3)c3ccc(OCc4ccc5ccccc5n4)cc3)CC2)O1 (racemic) [Example 34, hydrochloride]", "assigned.category": "True"}
{"compound": "O=C1NCC2(CCN(CC(c3ccc(Cl)cc3)c3ccc(OCc4ccc5ccccc5n4)cc3)CC2)O1 (racemic) [Example 8, dihydrochloride]", "assigned.category": "False"}
{"compound": "O=C1NCC2(CCN(C(c3ccc(Cl)cc3)c3ccc(OCc4ccc5ccccc5n4)cc3)CC2)O1 (racemic) [Example 22, dihydrochloride]", "assigned.category": "False"}
{"compound": "O=C1NCC2(CCN(C(c3ccccc3)c3ccc(OCc4ccc5ccccc5n4)cc3)CC2)O1 (racemic)", "assigned.category": "False"}

====

system: synthesis of PGE2 by the peritoneal PMN of rats; assay: Inhibition of the synthesis of PGE2 by the peritoneal PMN of rats in vitro; format: cell-based, rat; details: 10^-4 M; rat peritoneal PMN, A23187
Counter-ions that a name gives are not always drawn.

{"compound": "O=C1NCC2(CCN(C(c3ccccc3)c3ccc(OCc4ccc5ccccc5n4)cc3)CC2)O1 (racemic) [Example 24]", "output.unit": "%", "inhibition at 100 µM": 44}
{"compound": "O=C1NCC2(CCN(C(c3ccc(Cl)cc3)c3ccc(OCc4ccc5ccccc5n4)cc3)CC2)O1 (racemic) [Example 22, dihydrochloride]", "output.unit": "%", "inhibition at 100 µM": 4}
{"compound": "O=C1NCC2(CCN(CC(Cc3ccccc3)c3ccc(OCc4ccc5ccccc5n4)cc3)CC2)O1 (racemic) [Example 32]", "output.unit": "%", "inhibition at 100 µM": 92}
{"compound": "O=C1NCC2(CCN(CC(CCc3ccccc3)c3ccc(OCc4ccc5ccccc5n4)cc3)CC2)O1 (racemic) [Example 33]", "output.unit": "%", "inhibition at 100 µM": 94}
{"compound": "O=C1OC2(CCN(CC(c3ccccc3)c3ccc(OCc4ccc5ccccc5n4)cc3)CC2)CN1CCc1ccccc1 (racemic) [Example 12]", "output.unit": "%", "inhibition at 100 µM": 86}
{"compound": "O=C1NCC2(CCN(CC(c3ccc(Cl)cc3)c3ccc(OCc4ccc5ccccc5n4)cc3)CC2)O1 (racemic) [Example 8, dihydrochloride]", "output.unit": "%", "inhibition at 100 µM": 72}
{"compound": "O=C1NCC2(CCN(CC(Cc3ccc(Cl)cc3)c3ccc(OCc4ccc5ccccc5n4)cc3)CC2)O1 (racemic) [Example 34, hydrochloride]", "output.unit": "%", "inhibition at 100 µM": 6}
{"compound": "O=C1NCC2(CCN(CCc3ccc(OCc4ccc5ccccc5n4)cc3)CC2)O1 [Example 2]", "output.unit": "%", "inhibition at 100 µM": 23}
{"compound": "O=C1NCC2(CCN(CC(c3ccccc3)c3ccc(OCc4ccc5ccccc5n4)cc3)CC2)O1 (racemic) [Example 6]", "output.unit": "%", "inhibition at 100 µM": 88}

====

system: 5-lipoxygenase; assay: Inhibition of the synthesis of LTB4 by the peritoneal PMN of rats in vitro (5-lipoxygenase-inhibiting activity); format: cell-based, rat; conditions: 10^-6 M; rat peritoneal PMN, A23187 10^-6 M
Structures can show the parent of a compound that is named as a salt.
Reported LTB4 % Inhibition is given for each of the following compounds.

{"compound": "O=C1NCC2(CCN(CC(Cc3ccccc3)c3ccc(OCc4ccc5ccccc5n4)cc3)CC2)O1 (racemic) [Example 32]", "LTB4 % Inhibition": "100%"}
{"compound": "Cn1c(=O)ccc2cc(COc3ccc(C(c4ccccc4)N4CCC5(CC4)CNC(=O)O5)cc3)ccc21 (racemic) [Example 25]", "LTB4 % Inhibition": "7%"}
{"compound": "O=C1NCC2(CCN(CC(=O)c3ccc(OCc4ccc5ccccc5n4)cc3)CC2)O1 [Example 28]", "LTB4 % Inhibition": "37%"}
{"compound": "O=C1NCC2(CCN(CC(c3ccc(Cl)cc3)c3ccc(OCc4ccc5ccccc5n4)cc3)CC2)O1 (racemic) [Example 8, dihydrochloride]", "LTB4 % Inhibition": "100%"}
